targetDesc: HLA-A*02:01 (Homo sapiens, UniProt P04439, D140Y/D185E/D98H/E176V/E277Q/G131W/G231S/I119V/I121R/I166T/I218V/L300P/L318F/N151K/N90K/P208A/P217A/Q86G/Q94H/R138H/R169H/T345S)
test: MHC binding assay (UV-ligand exchange, β2m ELISA, peptide exchange yield)
details: binding to HLA-A*02:01 ranged by peptide exchange yield (UV-ligand exchange, β2m ELISA)
assayReadout: Peptide exchange

>>> valuemeasured("47 (VLMDDTDPL; listed as Homo sapiens) [compound 47]")
"+++ (>50 = +++)"
>>> valuemeasured("13 (FLEEKEQAAL; listed as Homo sapiens) [compound 13]")
"+++ (>50 = +++)"
>>> valuemeasured("5 (IQDPVIFYV; listed as Homo sapiens) [compound 5]")
"++++ (>75% = ++++)"
>>> valuemeasured("99 (ALIGDDVGL; listed as Homo sapiens) [compound 99]")
"+++ (>50 = +++)"
>>> valuemeasured("121 (QLQGYLRSV; listed as Homo sapiens) [compound 121]")
"+++ (>50 = +++)"

Given the substance 143 (TLVTGLASV; listed as Homo sapiens) [compound 143] , what is its reported Peptide exchange? +++ (>50 = +++)

Given the substance 57 (GLAHFVNEI; listed as Homo sapiens) [compound 57] , what is its reported Peptide exchange? ++++ (>75% = ++++)

Given the substance 115 (SLLDFERSL; listed as Homo sapiens) [compound 115] , what is its reported Peptide exchange? +++ (>50 = +++)

Given the substance 64 (GLLSQGSPL; listed as Homo sapiens) [compound 64] , what is its reported Peptide exchange? +++ (>50 = +++)

Given the substance 130 (TLTSKLYSL; listed as Homo sapiens) [compound 130] , what is its reported Peptide exchange? ++++ (>75% = ++++)

Given the substance 79 (FLDPATPRV; listed as Homo sapiens) [compound 79] , what is its reported Peptide exchange? +++ (>50 = +++)

Given the substance 84 (ALDPASISV; listed as Homo sapiens) [compound 84] , what is its reported Peptide exchange? +++ (>50 = +++)

* * *

targetDesc: HLA-A*02:01 (Homo sapiens, UniProt P04439, D140Y/D185E/D98H/E176V/E277Q/G131W/G231S/I119V/I121R/I166T/I218V/L300P/L318F/N151K/N90K/P208A/P217A/Q86G/Q94H/R138H/R169H/T345S)
test: MHC binding assay (UV-ligand exchange, β2m ELISA, peptide exchange yield)
details: binding to HLA-A*02:01 ranged by peptide exchange yield (UV-ligand exchange, β2m ELISA)
assayReadout: Peptide exchange

Some substances with recorded Peptide exchange:
>>> valuemeasured("11 (AMAELRVVV; listed as Homo sapiens) [compound 11]")
"++++ (>75% = ++++)"
>>> valuemeasured("72 (SLFTGLRSI; listed as Homo sapiens) [compound 72]")
"+++ (>50 = +++)"
>>> valuemeasured("45 (IIDSSPTAL; listed as Homo sapiens) [compound 45]")
"++ (>20% = ++)"
>>> valuemeasured("77 (KVFGGFQVV; listed as Homo sapiens) [compound 77]")
"++++ (>75% = ++++)"
>>> valuemeasured("29 (ALSSPPPTV; listed as Homo sapiens) [compound 29]")
"+++ (>50 = +++)"
>>> valuemeasured("52 (SLATLEGIQL; listed as Homo sapiens) [compound 52]")
"+++ (>50 = +++)"
>>> valuemeasured("34 (ALLDEQQVNV; listed as Homo sapiens) [compound 34]")
"+++ (>50 = +++)"
>>> valuemeasured("23 (YTLSKTEFL; listed as Homo sapiens) [compound 23]")
"++++ (>75% = ++++)"

Given the substance 38 (TLTSIIVAV; listed as Homo sapiens) [compound 38] , what is its reported Peptide exchange? +++ (>50 = +++)

Given the substance 82 (NLHNSYYSV; listed as Homo sapiens) [compound 82] , what is its reported Peptide exchange? +++ (>50 = +++)

Given the substance 37 (ILSAILVHL; listed as Homo sapiens) [compound 37] , what is its reported Peptide exchange? +++ (>50 = +++)

Given the substance 48 (VLMDDTDPLV; listed as Homo sapiens) [compound 48] , what is its reported Peptide exchange? +++ (>50 = +++)

Given the substance 41 (FLDDGNQMLL; listed as Homo sapiens) [compound 41] , what is its reported Peptide exchange? ++++ (>75% = ++++)

Given the substance 98 (YLIGLDPENLAL; listed as Homo sapiens) [compound 98] , what is its reported Peptide exchange? +++ (>50 = +++)

Origin of values: patent US12084522B2
